system: Streptococcus pneumoniae A28272; assay: MIC, broth micro dilution assay (NCCLS); format: cell-based; settings: 50% Mueller-Hinton medium and 50% Todd Hewitt medium, 35° C., 18 hours
Define the label as Fulfilled when MIC (μg/mL) Streptococcus pneumoniae A28272 is strictly less than 0.003 µg/mL and as Not fulfilled in all remaining cases.

Lab log: compare recorded MIC (μg/mL) Streptococcus pneumoniae A28272 with 0.003 µg/mL; is it strictly lower for C=C(NC(=O)c1csc(-c2nc3c(cc2OCC(N)=O)-c2nc(cs2)C(=O)NC(C(C)O)C(=O)NC(=C(C)OC)c2nc(cs2)C(=O)NC2c4nc(cs4)C(=O)NC(COC(=O)c4c5c6c(cccc6n4OCC(N)=O)COC(=O)C(OC4CC(C)(O)C(N(C)C)C(C)O4)C2OC5)c2nc-3cs2)n1)C(N)=O (stereo not shown) [Example 9] ?
Not fulfilled

Same for C=C(NC(=O)c1csc(-c2nc3c(cc2O)-c2nc(cs2)C(=O)NC(C(C)O)C(=O)NC(=C(C)OC)c2nc(cs2)C(=O)NC2c4nc(cs4)C(=O)NC(COC(=O)c4c5c6c(cccc6n4OCCC(=O)[O-])COC(=O)C(OC4CC(C)(O)C(N(C)C)C(C)O4)C2OC5)c2nc-3cs2)n1)C(N)=O.[Na+] (stereo not shown) [Example 44]
Not fulfilled

Same lookup for C=C(NC(=O)c1csc(-c2nc3c(cc2OC(C)=O)-c2nc(cs2)C(=O)NC(C(C)O)C(=O)NC(=C(C)OC)c2nc(cs2)C(=O)NC2c4nc(cs4)C(=O)NC(COC(=O)c4c5c6c(cccc6n4O)COC(=O)C(OC4CC(C)(O)C(N(C)C)C(C)O4)C2OC5)c2nc-3cs2)n1)C(N)=O.Cl (stereo not shown) [Example 24] , please.
Not fulfilled

Consider next the molecule C=C(NC(=O)c1csc(-c2nc3c(cc2O)-c2nc(cs2)C(=O)NC(C(C)O)C(=O)NC(=C(C)OC)c2nc(cs2)C(=O)NC2c4nc(cs4)C(=O)NC(COC(=O)c4c5c6c(cccc6n4OCCCS(=O)(=O)[O-])COC(=O)C(OC4CC(C)(O)C(N(C)C)C(C)O4)C2OC5)c2nc-3cs2)n1)C(N)=O.[Na+] (stereo not shown) [Example 7] in the same way.
Not fulfilled

Likewise for C=C(NC(=O)c1csc(-c2nc3c(cc2O)-c2nc(cs2)C(=O)NC(C(C)O)C(=O)NC(=C(C)OC)c2nc(cs2)C(=O)NC2c4nc(cs4)C(=O)NC(COC(=O)c4c5c6c(cccc6n4OC(C)=O)COC(=O)C(OC4CC(C)(O)C(N(C)C)C(C)O4)C2OC5)c2nc-3cs2)n1)C(N)=O (stereo not shown) [Example 23] ?
Not fulfilled

Do the same for C#CCOc1cc2c(nc1-c1nc(C(=O)NC(=C)C(N)=O)cs1)-c1csc(n1)C1COC(=O)c3c4c5c(cccc5n3OCC#C)COC(=O)C(OC3CC(C)(O)C(N(C)C)C(C)O3)C(OC4)C(NC(=O)c3csc(n3)C(=C(C)OC)NC(=O)C(C(C)O)NC(=O)c3csc-2n3)c2nc(cs2)C(=O)N1 (stereo not shown) [Example 75] please
Fulfilled

Okay, and C=C(NC(=O)c1csc(-c2nc3c(cc2O)-c2nc(cs2)C(=O)NC(C(C)O)C(=O)NC(=C(C)OC)c2nc(cs2)C(=O)NC2c4nc(cs4)C(=O)NC(COC(=O)c4c5c6c(cccc6n4OCCCNS(=O)(=O)c4cn(C)cn4)COC(=O)C(OC4CC(C)(O)C(N(C)C)C(C)O4)C2OC5)c2nc-3cs2)n1)C(N)=O (stereo not shown) [Example 47] ?
Not fulfilled

Param item: C=C(NC(=O)c1csc(-c2nc3c(cc2O)-c2nc(cs2)C(=O)NC(C(C)O)C(=O)NC(=C(C)OC)c2nc(cs2)C(=O)NC2c4nc(cs4)C(=O)NC(COC(=O)c4c5c6c(cccc6n4OCC(N)=O)COC(=O)C(OC4CC(C)(O)C(N(C)C)C(C)O4)C2OC5)c2nc-3cs2)n1)C(N)=O (stereo not shown) [Example 8]
Not fulfilled

Also check C=C(NC(=O)c1csc(-c2nc3c(cc2O)-c2nc(cs2)C(=O)NC(C(C)O)C(=O)NC(=C(C)OC)c2nc(cs2)C(=O)NC2c4nc(cs4)C(=O)NC(COC(=O)c4c5c6c(cccc6n4OC(=O)NCCCN4CCN(C)CC4)COC(=O)C(OC4CC(C)(O)C(N(C)C)C(C)O4)C2OC5)c2nc-3cs2)n1)C(N)=O (stereo not shown) [Example 16]
Fulfilled

One more molecule: C=C(NC(=O)c1csc(-c2nc3c(cc2O)-c2nc(cs2)C(=O)NC(C(C)O)C(=O)NC(=C(C)OC)c2nc(cs2)C(=O)NC2c4nc(cs4)C(=O)NC(COC(=O)c4c5c6c(cccc6n4OCCCNC(=N)N)COC(=O)C(OC4CC(C)(O)C(N(C)C)C(C)O4)C2OC5)c2nc-3cs2)n1)C(N)=O (stereo not shown) [Example 48]
Not fulfilled

Next up: C=C(NC(=O)c1csc(-c2nc3c(cc2OCc2ccccc2)-c2nc(cs2)C(=O)NC(C(C)O)C(=O)NC(=C(C)OC)c2nc(cs2)C(=O)NC2c4nc(cs4)C(=O)NC(COC(=O)c4c5c6c(cccc6n4OCOCC[Si](C)(C)C)COC(=O)C(OC4CC(C)(O)C(N(C)C)C(C)O4)C2OC5)c2nc-3cs2)n1)C(N)=O (stereo not shown) [Example 79]
Not fulfilled
